Test system: HeLa
Assay: Cytotoxicity against human HeLa cells
Assay type: functional, cell-based
Listing of recorded IC50 by entry.

| molecule | value.comparator | IC50 / µM |
| --- | --- | --- |
| CS[C@]1(CO)C(=O)N2[C@H]3C(=CC=C[C@@H]3O)C[C@@]2(SC)C(=O)N1C [BIS(DETHIO)BIS(METHYLTHIO)GLIOTOXIN] | > | 2.81 |
| CN1C(=O)[C@]23CC4=CC=C[C@H](O)[C@H]4N2C(=O)[C@@]1(CO)SS3 [GLIOTOXIN] | = | 2.45 |

====

Assay: Toxicity in ip dosed mouse
Format: organism-based
Conditions: in vivo

| compound | quantity.unit | LD50 |
| --- | --- | --- |
| COc1ccc2c3c4n(c2c1)[C@H](C=C(C)C)OOC(C)(C)C[C@@H]4N1C(=O)[C@@H]2CCCN2C(=O)[C@]1(O)[C@H]3O [VERRUCULOGEN] | mg/kg | 2.4 |
